Origin of the recorded values: patent US20260216368A1

- ASSAY_NAME: DLS size and polydispersity of hEPO mRNA lipid nanoparticles
- Type: physicochemical
- CONDITION_DESCRIPTION: Table 1; hEPO mRNA LNP, Cationic Lipid:DMG-PEG2000:Cholesterol:DOPE=40:1.5:28.5:30, N/P ratio 4, Process A
QUANTITY_MEASURED: Size (nm)

COMPOUND	MEASUREMENT
CCCCCC/C=C\COC(=O)CCCCCC(O)CN(CCCOC(=O)CN(C)CC(=O)OCCCN(CC(O)CCCCCC(=O)OC/C=C\CCCCCC)CC(O)CCCCCC(=O)OC/C=C\CCCCCC)CC(O)CCCCCC(=O)OC/C=C\CCCCCC (stereo not shown) [XV]	134
CCCCCCCCCCC(O)CN(CCCCOC(=O)CN(C)CC(=O)OCCCCN(CC(O)CCCCCCCCCC)CC(O)CCCCCCCCCC)CC(O)CCCCCCCCCC (stereo not shown) [XIV]	101
CCCCCCCCC(O)CN(CCCOC(=O)CN(C)CC(=O)OCCCN(CC(O)CCCCCCCC)CC(O)CCCCCCCC)CC(O)CCCCCCCC (stereo not shown) [XII]	110
CCCCCCCCCCC(O)CN(CCCOC(=O)CCC(C)C(=O)OCCCN(CC(O)CCCCCCCCCC)CC(O)CCCCCCCCCC)CC(O)CCCCCCCCCC (stereo not shown) [XXXII]	106
